Data origin: PubChem BioAssay AID1259421

- Method notes: T. gondii ME49Luc in HeLa cells, luciferase assay, 72 h, no IFN-y (AID 1259421)
- Condition summary: stronger effect = lower value, concentration not given here
Among all 6,400 compounds or so, about 610 (9.5%) were called active. This is one part of a sample in which actives are shown more often than they occur.
Metric name: activity change, negative = inhibition (%)
Answer in %, number only, no unit symbol.

Request: Bench note: what activity change, negative = inhibition did CC(=O)c1ccc2c(c1)[C@H](NC(=O)c1ccc(F)c(Cl)c1)[C@H](O)C(C)(C)O2 show?
Result: -1.26

Request: Bench note: what activity change, negative = inhibition did CNC(=O)c1cccc2cc(Oc3ccnc4cc(OCC5(N)CC5)c(OC)cc34)ccc12 show?
Result: -25

Request: Bench note: what activity change, negative = inhibition did CCN(CC)CCCCC(NC(=O)c1ccc([N+](=O)[O-])cc1)c1ccccc1 (configuration not stated) show?
Result: 34.1

Request: Bench note: what activity change, negative = inhibition did Cc1nc(NC(=O)N2CCC[C@H]2C(N)=O)sc1-c1ccnc(C(C)(C)C(F)(F)F)c1 show?
Result: -3.31

Request: Bench note: what activity change, negative = inhibition did CC(C)c1cc(-c2n[nH]c(=O)n2-c2ccc3c(ccn3C)c2)c(O)cc1O show?
Result: -82.8

Request: Bench note: what activity change, negative = inhibition did COC(=O)c1cc(S(C)(=O)=O)ccc1OC show?
Result: 9.8

Request: Bench note: what activity change, negative = inhibition did O=C(O)COCCN1CCN([C@H](c2ccccc2)c2ccc(Cl)cc2)CC1 show?
Result: -64.2

Request: Bench note: what activity change, negative = inhibition did C=CC(=O)NCc1ccccc1 show?
Result: 10.8

Request: Bench note: what activity change, negative = inhibition did C[C@H]1CC[C@@]2(OC1)O[C@H]1C[C@H]3[C@@H]4CC[C@@H]5C[C@@H](O)CC[C@]5(C)[C@H]4CC[C@]3(C)[C@H]1[C@@H]2C show?
Result: 10.8

Request: Bench note: what activity change, negative = inhibition did O=C(/C=C/c1ccccc1)c1ccc(O)cc1 show?
Result: -8.89

Request: Bench note: what activity change, negative = inhibition did CC(C)[C@H](CO)Nc1nc(Nc2cc(N)cc(Cl)c2)c2ncn(C(C)C)c2n1 show?
Result: -82.6

Request: Bench note: what activity change, negative = inhibition did NS(=O)(=O)c1ccc(N=Cc2c(O)[nH]c3ccccc23)cc1 show?
Result: 13.4

Request: Bench note: what activity change, negative = inhibition did CN1CC[C@H](c2c(O)cc(O)c3c(=O)cc(-c4ccccc4Cl)oc23)[C@H](O)C1 show?
Result: -83.7

Request: Bench note: what activity change, negative = inhibition did COc1ccc2c(OCc3nnc4ccc(-c5ccccc5)nn34)ccnc2c1 show?
Result: 4.78

Request: Bench note: what activity change, negative = inhibition did COc1ccc(C(C#N)C(C)C)cc1OC (configuration not stated) show?
Result: 21.3

Request: Bench note: what activity change, negative = inhibition did CSCC[C@H](NC(=O)[C@@H](N)Cc1c[nH]c2ccccc12)C(=O)N[C@@H](CC(=O)O)C(=O)N[C@@H](Cc1ccccc1)C(N)=O show?
Result: 17

Request: Bench note: what activity change, negative = inhibition did Cc1cc(C)c2c(c1)[C@@H](N(Cc1cc(C(F)(F)F)cc(C(F)(F)F)c1)c1nnn(C)n1)CCCN2CC1CCC(C(=O)O)CC1 (some centres not stated) show?
Result: -80.5

Request: Bench note: what activity change, negative = inhibition did N[C@@H]1CCCC[C@H]1N.O=C(O)C(=O)O.[Pt] show?
Result: 10.5

Request: Bench note: what activity change, negative = inhibition did C[C@@H](NC(=O)/C(C#N)=C\c1ccc(O)c(O)c1)c1ccccc1 show?
Result: -3.05

Request: Bench note: what activity change, negative = inhibition did Cc1cc(OCCN2CCOCC2)nn1-c1ccc2ccccc2c1 show?
Result: 13.6

Request: Bench note: what activity change, negative = inhibition did C=C[C@]1(C)C[C@@H](OC(=O)CSC2C[C@H]3CC[C@@H](C2)N3C)[C@]2(C)[C@H](C)CC[C@]3(CCC(=O)[C@H]32)[C@@H](C)[C@@H]1O (some centres not stated) show?
Result: -18.6

Request: Bench note: what activity change, negative = inhibition did CC(=O)O[C@H]1C[C@@]2(C)[C@@H](C[C@@H](O)[C@H]3[C@@]4(C)CC[C@@H](O)[C@@H](C)C4CC[C@@]32C)/C1=C(/CCC=C(C)C)C(=O)O (some centres not stated) show?
Result: -17.8

Request: Bench note: what activity change, negative = inhibition did CCC(=O)O[C@@H](OP(=O)(CCCCc1ccccc1)CC(=O)N1C[C@H](C2CCCCC2)C[C@H]1C(=O)O)C(C)C (some centres not stated) show?
Result: 11.7

Request: Bench note: what activity change, negative = inhibition did Cc1cn(C2CC(N=[N+]=[N-])C(CO)O2)c(=O)[nH]c1=O (configuration not stated) show?
Result: 10.1

Request: Bench note: what activity change, negative = inhibition did CC(C)n1cnc2c(NCc3ccccc3)nc(NCCCO)nc21 show?
Result: 0.139

Request: Bench note: what activity change, negative = inhibition did Oc1c(I)cc(Cl)c2cccnc12 show?
Result: 24.2

Request: Bench note: what activity change, negative = inhibition did CCC(=O)c1ccc(OCC(O)CN2CCN(c3ccccc3)CC2)cc1 (configuration not stated) show?
Result: 9.53

Request: Bench note: what activity change, negative = inhibition did C=CCN1CCCC1CNC(=O)c1cc2[nH]nnc2cc1OC (configuration not stated) show?
Result: 3.75

Request: Bench note: what activity change, negative = inhibition did CC(=O)Nc1nc(C)c(-c2ccc(Cl)c(S(=O)(=O)NCCO)c2)s1 show?
Result: -78.9

Request: Bench note: what activity change, negative = inhibition did CCCC(=O)Nc1ncnc2c1ncn2C1OC2COP(=O)(O)OC2C1OC(=O)CCC (configuration not stated) show?
Result: 6.24

Request: Bench note: what activity change, negative = inhibition did CN1CC[C@@H](c2c(O)cc(O)c3c(=O)cc(-c4ccccc4Cl)oc23)[C@@H]1CO show?
Result: -78.4

Request: Bench note: what activity change, negative = inhibition did Cc1cn([C@H]2C[C@H](N=[N+]=[N-])[C@@H](CO)O2)c(=O)[nH]c1=O show?
Result: -81.6

Request: Bench note: what activity change, negative = inhibition did C=CC(=O)N1CCC[C@@H](n2nc(-c3ccc(Oc4ccccc4)cc3)c3c(N)ncnc32)C1 show?
Result: -76.1

Request: Bench note: what activity change, negative = inhibition did O=Nc1c(-c2c(O)[nH]c3ccccc23)[nH]c2ccccc12 show?
Result: -74.5

Request: Bench note: what activity change, negative = inhibition did CCC(CC)(CC(=O)Nc1cccc(/C=C/c2nc(C3CCC3)cs2)c1)C(=O)O show?
Result: 41.5

Request: Bench note: what activity change, negative = inhibition did CO[C@H]1C(=O)[C@@]2(C)[C@H]([C@@H](OC(=O)c3ccccc3)[C@@]3(O)C[C@H](OC(=O)[C@H](O)[C@@H](NC(=O)OC(C)(C)C)c4ccccc4)C(C)=C1C3(C)C)[C@]1(OC(C)=O)CO[C@@H]1C[C@H]2OC show?
Result: -82.6

Request: Bench note: what activity change, negative = inhibition did CC[C@@H](Nc1c(Nc2cccc(C(=O)N(C)C)c2O)c(=O)c1=O)c1ccc(C)o1 show?
Result: -16.5
